Test system: YANK1
Construct: gene STK32A
Settings: concentration: 1 μM,replicates: in singlicate; n = 1;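 note: KINOMEscan kinase panel screen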
# reported %Inh; entries follow
Report the figure in % without appending any unit label.

A selection of reference data follows.
| SMILES_DATA | VALUE_MEASURED |
| --- | --- |
| O=C(NCCNc1ccnc(NCc2ccc(F)cc2)n1)c1cc2ccccc2s1 | 19 |
| CCN(CC)CCCCNc1ncc2cc(-c3c(Cl)cccc3Cl)c(NC(=O)NC(C)(C)C)nc2n1 | 53 |
| CCN(CC)CCOc1ccc(Nc2ncc3cc(-c4c(Cl)cccc4Cl)c(=O)n(C)c3n2)cc1 | 95.1 |

# context switch: different compound, same %Inh
Query string: // %Inh lookup, key: Cl.Cl.NC[C@H](Cc1ccc(C(F)(F)F)cc1)NC(=O)c1cc(Br)c(-c2ccnc3[nH]ccc23)s1
Result string: 56

###

Test system: ERK4
Construct: gene MAPK4
Details: concentration: 1 μM,replicates: in singlicate; n = 1
# reported %Inh; entries follow
Answers without a unit are incomplete; give the number and then its unit.

| SMILES_DATA | OUTCOME_MEASURE | VALUE_MEASURED |
| --- | --- | --- |
| Nc1nc(Nc2ccccc2)cc(-c2ccc3c(N)n[nH]c3c2)n1 | %Inh | 0% |
| O=C(NCCCN1CCOC1=O)c1cnc(NCc2cc(Cl)ccc2Cl)nc1NC1CCCC1 | %Inh | 4% |
| C[C@@H]1CCN(C(=O)CC#N)C[C@@H]1N(C)c1ncnc2[nH]ccc12 | %Inh | 7% |
| CC(C)Nc1cc(-c2ccc3c(N)n[nH]c3c2)nc(N)n1 | %Inh | 0% |

# context switch: different compound, same %Inh
Query string: Form: Entry = Cl.Cl.NC[C@H](Cc1ccc(C(F)(F)F)cc1)NC(=O)c1cc(Br)c(-c2ccnc3[nH]ccc23)s1 | System = ERK4 | %Inh = ____
Result string: 23%

###

# reported %Inh; entries follow
Test system: BUB1
Conditions: concentration: 1 μM,replicates: in singlicate; n = 1
Report the figure in % without appending any unit label.

Query string: // %Inh lookup, key: Cl.Cl.Nc1nc(-c2ccc3c(N)n[nH]c3c2)cc(N2CCCC(NC(=O)c3ccccc3)C2)n1 (stereo not drawn)
Result string: 32

Query string: // %Inh lookup, key: CNC(=O)c1ccccc1Sc1ccc2c(/C=C/c3ccccn3)n[nH]c2c1
Result string: 53

Query string: // %Inh lookup, key: C[C@H]1Oc2cc(cnc2N)-c2c(nn(C)c2C#N)CN(C)C(=O)c2ccc(F)cc21
Result string: 0

###

System: MARK1
Details: concentration: 1 μM,replicates: in singlicate; n = 1
# label = True if %Inh >= 8% else False

| MOLECULE | CAT |
| --- | --- |
| C=CC(=O)Nc1cc2c(Nc3ccc(F)c(Cl)c3)ncnc2cc1OCCCN1CCOCC1 [GW781483] | False |
| CCN(CC)CCOc1ccc(Nc2ncc3cc(-c4c(Cl)cccc4Cl)c(=O)n(C)c3n2)cc1 [SB-601273] | True |
| Cc1n[nH]c2ccc(-c3cc(OC[C@@H](N)Cc4ccccc4)cnc3-c3ccoc3)cc12.O=C(O)C(F)(F)F.O=C(O)C(F)(F)F [GSK507358] | False |
| CNC(=O)c1ccccc1Sc1ccc2c(/C=C/c3ccccn3)n[nH]c2c1 | False |
| Cl.Cl.Nc1nc(-c2ccc3c(N)n[nH]c3c2)cc(N2CCCC(NC(=O)c3ccccc3)C2)n1 (stereo not shown) [GSK2286775] | False |
| Cl.Cl.NC[C@H](CC1CCCCC1)NC(=O)c1cc(Br)c(-c2ccnc3[nH]ccc23)s1 [GSK1581427] | False |
| Cc1cc(C(=O)Nc2ccc(Oc3ccc4nc(NC(=O)C5CC5)cn4n3)cc2)nn1-c1ccccc1 | True |
| C[C@@H](Oc1cc(-c2cnn(C3CCNCC3)c2)cnc1N)c1c(Cl)ccc(F)c1Cl | True |
| Cc1ccc(-n2nc(C(C)(C)C)cc2NC(=O)Nc2ccc(OCCN3CCOCC3)c3ccccc23)cc1 [GW839464] | True |
| Cc1cc2cn[nH]c2cc1-c1cccc2c(N)c(C(N)=O)nnc12 | False |

Query string: Determine whether this molecule has %Inh no lower than 8%: C[C@@H]1CCN(C(=O)CC#N)C[C@@H]1N(C)c1ncnc2[nH]ccc12
Result string: False

Query string: Determine whether this molecule has %Inh no lower than 8%: Cl.Cl.NC[C@H](Cc1ccc(C(F)(F)F)cc1)NC(=O)c1cc(Br)c(-c2ccnc3[nH]ccc23)s1 [GSK1487252]
Result string: False

Query string: Determine whether this molecule has %Inh no lower than 8%: C[C@H]1Oc2cc(cnc2N)-c2c(nn(C)c2C#N)CN(C)C(=O)c2ccc(F)cc21
Result string: True

Query string: Determine whether this molecule has %Inh no lower than 8%: CN(C)CC(O)COc1ccc(Nc2nccc(-c3cnn4nc(N5CCOCC5)ccc34)n2)cc1 (stereo not shown) [GW767488]
Result string: True

Query string: Determine whether this molecule has %Inh no lower than 8%: O=C(NCCNc1ccnc(NCc2ccc(F)cc2)n1)c1cc2ccccc2s1 [GSK1379944]
Result string: False

###

Tested on: DAPK1
Settings: concentration: 1 μM,replicates: in singlicate; n = 1
# reported %Inh; entries follow
Answers without a unit are incomplete; give the number and then its unit.

| MOLECULE | %Inh |
| --- | --- |
| CC(C)N1C(=O)Cc2cc(Nc3ncc(C(F)(F)F)c(NCc4cccc(S(C)(=O)=O)c4)n3)ccc21 | 22% |

Query string: // %Inh lookup, key: NC(=O)c1cc(-c2ccccc2)cc2c(C3CCNCC3)c[nH]c12
Result string: 23%

Query string: // %Inh lookup, key: Cc1n[nH]c2ccc(-c3cc(OC[C@@H](N)Cc4ccccc4)cnc3-c3ccoc3)cc12.O=C(O)C(F)(F)F.O=C(O)C(F)(F)F
Result string: 0%

Query string: // %Inh lookup, key: CCN(CC)CCOc1ccc(Nc2ncc3cc(-c4c(Cl)cccc4Cl)c(=O)n(C)c3n2)cc1
Result string: 12%

Query string: // %Inh lookup, key: CN(C)CC(O)COc1ccc(Nc2nccc(-c3cnn4nc(N5CCOCC5)ccc34)n2)cc1 (stereo not drawn)
Result string: 59%

Query string: // %Inh lookup, key: Cl.Cl.NC[C@H](Cc1ccc(C(F)(F)F)cc1)NC(=O)c1cc(Br)c(-c2ccnc3[nH]ccc23)s1
Result string: 0%

###

# reported %Inh; entries follow
Tested on: FGFR2
Settings: concentration: 1 μM,replicates: in singlicate; n = 1
Report the figure in % without appending any unit label.

A selection of reference data follows.
| SMILES_DATA | %Inh (%) |
| --- | --- |
| C=CC(=O)Nc1cc2c(Nc3ccc(F)c(Cl)c3)ncnc2cc1OCCCN1CCOCC1 | 0 |
| Cl.Cl.NC[C@H](Cc1ccc(C(F)(F)F)cc1)NC(=O)c1cc(Br)c(-c2ccnc3[nH]ccc23)s1 | 17 |
| Cl.Oc1cc(-c2nc(-c3ccccc3)[nH]c2-c2ccncc2)ccc1Cl | 2 |

# context switch: different compound, same %Inh
Query string: // %Inh lookup, key: Cc1ccc(-n2nc(C(C)(C)C)cc2NC(=O)Nc2ccc(OCCN3CCOCC3)c3ccccc23)cc1
Result string: 2

###

# reported %Inh; entries follow
Tested on: AURKA
Conditions: concentration: 1 μM,replicates: in singlicate; n = 1
Report the figure in % without appending any unit label.

| SMILES_DATA | %Inh, % |
| --- | --- |
| C=CC(=O)Nc1cc2c(Nc3ccc(F)c(Cl)c3)ncnc2cc1OCCCN1CCOCC1 | 25 |
| Cc1cc2cn[nH]c2cc1-c1cccc2c(N)c(C(N)=O)nnc12 | 90 |
| Cl.Cl.NC[C@H](Cc1ccc(C(F)(F)F)cc1)NC(=O)c1cc(Br)c(-c2ccnc3[nH]ccc23)s1 | 30 |
| CN(C)CCOc1ccc(-c2cc(-c3c[nH]nc3-c3ccccn3)ccn2)cc1 | 0 |
| Cc1ccc2c(-c3ccncc3)c(-c3ccc(F)cc3)nn2c1.Cl | 8 |

Query string: Form: Entry = Cl.Cl.NC[C@H](CC1CCCCC1)NC(=O)c1cc(Br)c(-c2ccnc3[nH]ccc23)s1 | System = AURKA | %Inh = ____
Result string: 63

###

Test system: FER
Details: concentration: 1 μM,replicates: in singlicate; n = 1
hey, just use class 1 if measured %Inh is less than 6%, otherwise class 0

| MOLECULE | CAT |
| --- | --- |
| Cc1cc2cn[nH]c2cc1-c1cccc2c(N)c(C(N)=O)nnc12 | class 0 |

Query string: Report whether reported %Inh is lower than 6% (strictly) for CNC(=O)c1ccccc1Sc1ccc2c(/C=C/c3ccccn3)n[nH]c2c1
Result string: class 1

Query string: Report whether reported %Inh is lower than 6% (strictly) for CCN(CC)CCOc1ccc(Nc2ncc3cc(-c4c(Cl)cccc4Cl)c(=O)n(C)c3n2)cc1 [SB-601273]
Result string: class 0

Query string: Report whether reported %Inh is lower than 6% (strictly) for Nc1nc(Nc2ccccc2)cc(-c2ccc3c(N)n[nH]c3c2)n1 [GSK2225749]
Result string: class 1

Query string: Report whether reported %Inh is lower than 6% (strictly) for Cl.Oc1cc(-c2nc(-c3ccccc3)[nH]c2-c2ccncc2)ccc1Cl [SB-386023]
Result string: class 1
